Test system: Staphylococcus aureus
assay.text: Inhibition of biofilm formation in Staphylococcus aureus MLS16 MTCC 2940 incubated for 24 hrs by crystal violet staining based microtiter plate method
Type: functional, organism-based
condition.summary: Staphylococcus aureus, MLS16 MTCC 2940, 24 h; read-out: IC50
measured.attribute: IC50 (µM)
Report only the number, with the unit µM understood.

Entry under test: COc1ccc(-n2cc(COc3ccc(/C=N/Nc4nc(-c5cc6c(ccc7ccccc76)oc5=O)cs4)cc3)nn2)cc1 . Its IC50 was 51.1

###

Test system: Staphylococcus aureus
assay.text: Inhibition of biofilm formation in Staphylococcus aureus MLS16 MTCC 2940 incubated for 24 hrs by crystal violet staining based microtiter plate method
Format: functional, organism-based
measured.attribute: IC50

Worked examples follow.
compound	IC50
COc1ccc(-n2cc(COc3ccc(/C=N/Nc4nc(-c5cc6cc(Br)cc(Br)c6oc5=O)cs4)cc3)nn2)cc1	Not Active
COc1ccc(-n2cc(COc3ccc(/C=N/Nc4nc(-c5cc6cc([N+](=O)[O-])cc([N+](=O)[O-])c6oc5=O)cs4)cc3)nn2)cc1	Not Active
Clc1ccc(COC(Cn2ccnc2)c2ccc(Cl)cc2Cl)c(Cl)c1 (stereo not given) [MICONAZOLE]	Not Active
COc1ccc(-n2cc(COc3ccc(/C=N/Nc4nc(-c5cc6ccccc6oc5=O)cs4)cc3)nn2)cc1	Not Active
CCOc1cc(Br)cc2cc(-c3csc(N/N=C/c4ccc(OCc5cn(-c6ccc(OC)cc6)nn5)cc4)n3)c(=O)oc12	Not Active

Query COc1ccc(-n2cc(COc3ccc(/C=N/Nc4nc(-c5cc6cc(Cl)cc(Cl)c6oc5=O)cs4)cc3)nn2)cc1 yields IC50 of Not Active

Summary for this compound, CCOc1cccc2cc(-c3csc(N/N=C/c4ccc(OCc5cn(-c6ccc(OC)cc6)nn5)cc4)n3)c(=O)oc12 : IC50 is Not Active

Per the record, COc1ccc(-n2cc(COc3ccc(/C=N/Nc4nc(-c5cc6cc(Br)cc(OC)c6oc5=O)cs4)cc3)nn2)cc1 has IC50 of Not Active

Item: COc1ccc(-n2cc(COc3ccc(/C=N/Nc4nc(-c5cc6cccc(OC)c6oc5=O)cs4)cc3)nn2)cc1 | IC50: Not Active

Documented IC50 of COc1ccc(-n2cc(COc3ccc(/C=N/Nc4nc(-c5cc6cccc(Br)c6oc5=O)cs4)cc3)nn2)cc1 : Not Active

###

System: Micrococcus luteus
assay.text: Bactericidal activity against Micrococcus luteus MTCC 2470
Format: functional
measured.attribute: MBC
A bare number is not enough; add the unit after it.

Value of measured MBC for the entry COc1ccc(-n2cc(COc3ccc(/C=N/Nc4nc(-c5cc6c(ccc7ccccc76)oc5=O)cs4)cc3)nn2)cc1 : 25.9 µM

Per the record, COc1ccc(-n2cc(COc3ccc(/C=N/Nc4nc(-c5ccc([N+](=O)[O-])cc5)cs4)cc3)nn2)cc1 has MBC of 29.5 µM

get_value(item= COc1ccc(-n2cc(COc3ccc(/C=N/Nc4nc(-c5cc6cccc(OC)c6oc5=O)cs4)cc3)nn2)cc1 , readout=MBC) returns 13.4 µM

Briefly, MBC measured for O=C(O)c1cn(C2CC2)c2cc(N3CCNCC3)c(F)cc2c1=O [CIPROFLOXACIN] : 2.7 µM

###

Please go through the items and note down their MBC.
Test system: Staphylococcus aureus
assay.text: Bactericidal activity against Staphylococcus aureus MTCC 96
Assay type: functional
Numbers only here, please. The scale is µM.

Entry COc1ccc(-n2cc(COc3ccc(/C=N/Nc4nc(-c5ccc(C)cc5)cs4)cc3)nn2)cc1 — recorded MBC = 31.4

Entry COc1ccc(-n2cc(COc3ccc(/C=N/Nc4nc(-c5cc6cc(Br)cc(OC)c6oc5=O)cs4)cc3)nn2)cc1 , MBC reported as 11.8

# MBC (compound: COc1ccc(-n2cc(COc3ccc(/C=N/Nc4nc(-c5cc6cccc(OC)c6oc5=O)cs4)cc3)nn2)cc1 ) is 13.4

Sample COc1ccc(-n2cc(COc3ccc(/C=N/Nc4nc(-c5cc6cccc(Br)c6oc5=O)cs4)cc3)nn2)cc1 ; MBC observed: 12.3

###

Tested on: Micrococcus luteus
assay.text: Inhibition of biofilm formation in Micrococcus luteus MTCC 2470 incubated for 24 hrs by crystal violet staining based microtiter plate method
Type: functional, organism-based
condition.summary: Micrococcus luteus, MTCC 2470, 24 h; read-out: IC50
Give pIC50 for every item shown.
Scale note: pIC50 = -log10(concentration in M).

Form: item COc1ccc(-n2cc(COc3ccc(/C=N/Nc4nc(-c5cc6c(ccc7ccccc76)oc5=O)cs4)cc3)nn2)cc1 ; test system Micrococcus luteus; pIC50: 4.40

Record COc1ccc(-n2cc(COc3ccc(/C=N/Nc4nc(-c5cc6cccc(OC)c6oc5=O)cs4)cc3)nn2)cc1 has Micrococcus luteus pIC50 equal to 3.81

GET /values?item= COc1ccc(-n2cc(COc3ccc(/C=N/Nc4nc(-c5cc6cc(Br)cc(Br)c6oc5=O)cs4)cc3)nn2)cc1 &system= Micrococcus luteus returns pIC50: 4.35

I looked up COc1ccc(-n2cc(COc3ccc(/C=N/Nc4nc(-c5cc6cc(Br)cc(OC)c6oc5=O)cs4)cc3)nn2)cc1 and its pIC50 for Micrococcus luteus was 4.32

###

System: Escherichia coli
assay.text: Antibacterial activity against Escherichia coli MTCC 739 assessed as inhibition of bacterial growth by microtiter broth dilution method
Type: functional
So I've got a bunch of molecules here, and I need their MIC values.

# value of MIC, Escherichia coli, item COc1ccc(-n2cc(COc3ccc(/C=N/Nc4nc(-c5ccc(Br)cc5)cs4)cc3)nn2)cc1 = > 223 µM

# COc1ccc(-n2cc(COc3ccc(/C=N/Nc4nc(-c5cc6cccc(Br)c6oc5=O)cs4)cc3)nn2)cc1 with Escherichia coli: MIC is > 199 µM

Form field, MIC with Escherichia coli, item COc1ccc(-n2cc(COc3ccc(/C=N/Nc4nc(-c5cc6cccc(OC)c6oc5=O)cs4)cc3)nn2)cc1 : 6.7 µM

###

So I've got a bunch of compounds here, and I need their MBC values.
System: Staphylococcus aureus
assay.text: Bactericidal activity against Staphylococcus aureus MTCC 96
Format: functional
Lab book: enter the figure in µM, no units written.

Lab note: measured MBC of COc1ccc(-n2cc(COc3ccc(/C=N/Nc4nc(-c5ccc(Cl)cc5)cs4)cc3)nn2)cc1 was 30.2

Record COc1ccc(-n2cc(COc3ccc(/C=N/Nc4nc(-c5cc6c(ccc7ccccc76)oc5=O)cs4)cc3)nn2)cc1 . Reported MBC: 21.4

Recorded MBC (compound COc1ccc(-n2cc(COc3ccc(/C=N/Nc4nc(-c5ccc(-c6ccccc6)cc5)cs4)cc3)nn2)cc1 ): 27.9

For record COc1ccc(-c2csc(N/N=C/c3ccc(OCc4cn(-c5ccc(OC)cc5)nn4)cc3)n2)cc1 the listed MBC is 30.4

For this compound ( O=C(O)c1cn(C2CC2)c2cc(N3CCNCC3)c(F)cc2c1=O [CIPROFLOXACIN] ), measured MBC is 2.7

MBC reading for COc1ccc(-n2cc(COc3ccc(/C=N/Nc4nc(-c5ccc([N+](=O)[O-])cc5)cs4)cc3)nn2)cc1 : 29.5

Item: COc1ccc(-n2cc(COc3ccc(/C=N/Nc4nc(-c5cc6ccccc6oc5=O)cs4)cc3)nn2)cc1 | MBC: 28.3

###

Kindly supply the reported MIC values for the records listed here.
Tested on: Staphylococcus aureus
assay.text: Antibacterial activity against Staphylococcus aureus MLS16 MTCC 2940 assessed as inhibition of bacterial growth by microtiter broth dilution method
Assay type: functional

// COc1ccc(-n2cc(COc3ccc(/C=N/Nc4nc(-c5cc6ccccc6oc5=O)cs4)cc3)nn2)cc1 : MIC value = > 227 µM

Form: compound = COc1ccc(-n2cc(COc3ccc(/C=N/Nc4nc(-c5cc6cc(Cl)cc(Cl)c6oc5=O)cs4)cc3)nn2)cc1 ; MIC = > 202 µM

MIC reported for this compound COc1ccc(-n2cc(COc3ccc(/C=N/Nc4nc(-c5cc6cccc(OC)c6oc5=O)cs4)cc3)nn2)cc1 : 3.71 µM

Lab note: measured MIC of COc1ccc(-n2cc(COc3ccc(/C=N/Nc4nc(-c5ccc(C)cc5)cs4)cc3)nn2)cc1 was > 252 µM

Reported MIC ( COc1ccc(-n2cc(COc3ccc(/C=N/Nc4nc(-c5cc6cccc(Br)c6oc5=O)cs4)cc3)nn2)cc1 ) = > 199 µM

Lab note: COc1ccc(-n2cc(COc3ccc(/C=N/Nc4nc(-c5ccc(Cl)cc5)cs4)cc3)nn2)cc1 gave MIC of > 242 µM

Looking up COc1ccc(-n2cc(COc3ccc(/C=N/Nc4nc(-c5ccc(-c6ccccc6)cc5)cs4)cc3)nn2)cc1 , I found its MIC recorded as > 224 µM

Sample COc1ccc(-n2cc(COc3ccc(/C=N/Nc4nc(-c5cc6cc([N+](=O)[O-])cc([N+](=O)[O-])c6oc5=O)cs4)cc3)nn2)cc1 ; MIC observed: > 195 µM

Taken from ChEMBL document CHEMBL4673372.
